Test system: MDA-MB-231 breast
Assay: NCI tumour cell line growth inhibition, 48 h
Kindly supply the reported TGI values for the records listed here.
Enter your answer as a number in µM; do not include the unit.

Data request: Lookup: TGI / MDA-MB-231 breast / CC1(C)OCC(C2CCC3(C)C4=CCC5C(C)(C)C(O)CCC5(C)C4CCC23C)CC(O)C1O (configuration not stated)
Data returned: 35.7

Data request: Lookup: TGI / MDA-MB-231 breast / O=C1C=Cc2cscc21
Data returned: 80.6

Data request: Lookup: TGI / MDA-MB-231 breast / COC1(OC)C[C@H](C)[C@@]23O[C@]24C2=CC(=O)C=CC2=N[C@H]3C#C/C=C\C#C[C@]14O
Data returned: 2.06

Data request: Lookup: TGI / MDA-MB-231 breast / COc1cc2c3c(n(CCCN=[N+]=[N-])c(=O)c2cc1OC)-c1ccc(C#N)cc1C3=O
Data returned: 16.2

Data request: Lookup: TGI / MDA-MB-231 breast / COC(=O)c1c2c(c[n+]([O-])c1C)C(=O)C=C(NCc1ccccc1)C2=O
Data returned: 0.618

Data request: Lookup: TGI / MDA-MB-231 breast / CC(C)(C)c1[nH]nc2c1C(c1cc3ccccc3[nH]c1=O)Nc1cc(C(=O)Nc3ccc(Cl)cc3)ccc1N2 (configuration not stated)
Data returned: 6.32

Data request: Lookup: TGI / MDA-MB-231 breast / COC(=O)C1=C(C)NC(C)=C(C(=O)OC)C1c1ccc(NO)cc1
Data returned: 26.6

Data request: Lookup: TGI / MDA-MB-231 breast / C=C(C)[C@@H]1CC[C@]2(CNCCO)CC[C@]3(C)[C@H](CC[C@@H]4[C@@]5(C)CCC(N)[C@@](C)(CO)[C@@H]5CC[C@]43C)[C@@H]12 (some centres not stated)
Data returned: 3.44

Data request: Lookup: TGI / MDA-MB-231 breast / COC1C(CO)OC(n2c3ccccc3c3c4c(c5c6ccccc6[nH]c5c32)C(=O)NC4=O)C(OC(=O)C(N)CCCCN)C1O (configuration not stated)
Data returned: 1.01

Data request: Lookup: TGI / MDA-MB-231 breast / CC(=O)Oc1ccc2c(c1OC(C)=O)CCC1C2=CC[C@]2(C)C(=O)CCC12 (some centres not stated)
Data returned: 28.3

Data request: Lookup: TGI / MDA-MB-231 breast / COc1ccc(Nc2nc3cc(C(F)(F)F)ccc3nc2C(=O)O)cc1OC
Data returned: 65.6

Data request: Lookup: TGI / MDA-MB-231 breast / COc1cccc2c1C(=O)c1c(O)c3c(c(O)c1C2=O)CC(O)(C(O)CO)CC3OC1CC2C(OC3COCC(C#N)N32)C(C)O1 (configuration not stated)
Data returned: 0.0139

Data request: Lookup: TGI / MDA-MB-231 breast / Nc1nc(-c2cccc3ccccc23)cc2ccccc12
Data returned: 13.4

Data request: Lookup: TGI / MDA-MB-231 breast / CCN1CCN(c2cc(C)nc(N(CCCNc3ccnc4cc(Cl)ccc34)Cc3cccs3)n2)CC1
Data returned: 3.56

Data request: Lookup: TGI / MDA-MB-231 breast / CCOC(=O)c1ccc2c(c1)c1c(C)c3ccncc3c(C)c1n2C
Data returned: 2.4

Reference source: PubChem BioAssay (NCI)
